- STUDY_SYSTEM: BACE1 enzyme (Homo sapiens)
- Construct: The HEK293-9B.A1 cell line, which overexpresses the BACE1 enzyme, was derived from HEK293 cells; endogenous in cells; washed 48,000 x g pellet of cell homogenate
- Sequence (P56817 46-501): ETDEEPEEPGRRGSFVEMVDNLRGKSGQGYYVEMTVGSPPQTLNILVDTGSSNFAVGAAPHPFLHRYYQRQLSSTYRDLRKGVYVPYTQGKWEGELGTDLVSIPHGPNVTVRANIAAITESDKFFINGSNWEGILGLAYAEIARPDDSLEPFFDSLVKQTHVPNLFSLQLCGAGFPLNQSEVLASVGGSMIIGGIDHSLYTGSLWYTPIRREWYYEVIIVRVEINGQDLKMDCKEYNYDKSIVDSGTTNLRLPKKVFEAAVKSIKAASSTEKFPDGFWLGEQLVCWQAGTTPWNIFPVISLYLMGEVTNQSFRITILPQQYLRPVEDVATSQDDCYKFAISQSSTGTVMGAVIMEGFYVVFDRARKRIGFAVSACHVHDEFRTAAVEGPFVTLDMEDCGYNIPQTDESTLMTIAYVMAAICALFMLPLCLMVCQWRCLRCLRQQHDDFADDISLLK
- ASSAY_SUMMARY: Radioligand displacement assay with a radiolabeled BACE inhibitor on HEK293-9B.A1 cell homogenate
- SETUP_CONDITIONS: displacement of 1 nM tritiated radioligand, HEK293-9B.A1 homogenate, pH 5.0, 1.5 hr at 25° C.; read-out: Activity Rating (Activity based on IC50 values)
pIC50: −log10 of the molar value.
Quick list: pIC50 per entry.

// worked examples, pIC50 included
COMPOUND: CCON=C1CC(=O)/N=C(\N)NCc2cc(Cl)c(c(Cl)c2)NC(=O)CNCC=CCOc2ccc1cc2 (single isomer, unassigned; isomer b) [Example 2]
pIC50: < 7.30

COMPOUND: CCON=C1CC(=O)N=C(N)NCc2cc(Cl)c(c(Cl)c2)NC(=O)CNCCCCCCCOc2ccc1cc2
pIC50: > 8.30

COMPOUND: CCON=C1CC(=O)/N=C(\N)NCc2cc(Cl)c(c(Cl)c2)NC(=O)CNCC=CCOc2ccc1cc2 (single isomer, unassigned; isomer a) [Example 1]
pIC50: < 7.30

Now for the compound whose pIC50 we want.
Challenge: Which pIC50 value is on record for "CCON=C1CC(=O)N=C(N)NCc2cc(Cl)c(c(Cl)c2)NC(=O)CNCCCCCOc2ccc1cc2" ?
Response given: 7.30 to 8.30

Data origin, for the record: patent US7678784B2
